Entry source: patent US20250248393A1

Overview of recorded ratio of molecules diffused through the sticks for various compounds
- assay-notes: Ratios of molecules diffused through the sticks over time
- Format: physicochemical
- condition-description: Despecified pheromone (Core), 21 days after immersion of sticks (empty tank)

Past entries and their recorded results:
| compound | result |
| --- | --- |
| CCCCCCCCCCCCCCCC(=O)OC [methyl palmitate, methyl hexadecanoate] | 22 % (w/w) |
| CCCCCCCCCCCCCC(=O)OC [methyl myristate, methyl tetradecanoate] | 70 % (w/w) |
| CCCCC/C=C\C/C=C\CCCCCCCC(=O)OC [methyl linoleate, methyl (9Z,12Z)-octadeca-9,12-dienoate] | 4 % (w/w) |

*Q* Give its ratio of molecules diffused through the sticks value. Item: CCCCCCCC/C=C\CCCCCCCC(=O)OC [methyl oleate, methyl (Z)-octadec-9-enoate]
*A* 4 % (w/w)

====

- assay-notes: Indirect assay of rod diffuser solution (GC/FID)
- Assay type: physicochemical
- condition-description: stick diffuser solution, despecified pheromone, day 14
recorded-metric: % of the active ingredient in the pheromone (%)

Past entries and their recorded results:
| compound | readout-number |
| --- | --- |
| CCCCC/C=C\C/C=C\CCCCCCCC(=O)OC [methyl linoleate, methyl (9Z,12Z)-octadeca-9,12-dienoate] | 30.1 |
| CCCCCCCC/C=C\CCCCCCCC(=O)OC [methyl oleate, methyl (Z)-octadec-9-enoate] | 30.7 |

[P] CCCCCCCCCCCCCCCC(=O)OC [methyl palmitate, methyl hexadecanoate]
[Q] CCCCCCCCCCCCCC(=O)OC [methyl myristate, methyl tetradecanoate]
*Q* Lower value of % of the active ingredient in the pheromone belongs to which: P or Q ? Refer to your chosen entry by its label in the reply.
*A* Q

====

Overview of recorded ratio of molecules diffused through the sticks for various compounds
- assay-notes: Ratios of molecules diffused through the sticks over time
- Format: physicochemical
- condition-description: F3P, 21 days after immersion of sticks (empty tank)

Past entries and their recorded results:
| compound | result |
| --- | --- |
| CCCCC/C=C\C/C=C\CCCCCCCC(=O)OC [methyl linoleate, methyl (9Z,12Z)-octadeca-9,12-dienoate] | 0.5 % (w/w) |
| CCCCCCCCCCCCCC(=O)OC [methyl myristate, methyl tetradecanoate] | 8.7 % (w/w) |
| CCCCCCCC/C=C\CCCCCCCC(=O)OC [methyl oleate, methyl (Z)-octadec-9-enoate] | 2 % (w/w) |

Let's switch to this compound now.
*Q* Give its ratio of molecules diffused through the sticks value. Item: CCCCCCCCCCCC(=O)OC [methyl laurate, methyl dodecanoate]
*A* 17.5 % (w/w)

====

- assay-notes: Indirect assay of diffuser blocks (GC/FID, pheromone remaining in the block)
- Type: physicochemical
- condition-description: despecified pheromone, day 0
recorded-metric: % of the active ingredient in the pheromone (%)

| compound | readout-number |
| --- | --- |
| CCCCCCCC/C=C\CCCCCCCC(=O)OC [methyl oleate, methyl (Z)-octadec-9-enoate] | 30.4 |

[a] CCCCCCCCCCCCCC(=O)OC [methyl myristate, methyl tetradecanoate]
[b] CCCCCCCCCCCCCCCC(=O)OC [methyl palmitate, methyl hexadecanoate]
*Q* Lower value of % of the active ingredient in the pheromone belongs to which: a or b ? Refer to your chosen entry by its label in the reply.
*A* a

====

- assay-notes: Pheromone migrated to the stick tips (GC/FID)
- Format: physicochemical
- condition-description: on stick tips, despecified pheromone, day 14
recorded-metric: % of the active ingredient in the pheromone (%)

Past entries and their recorded results:
| molecule | readout-number |
| --- | --- |
| CCCCCCCCCCCCCCCC(=O)OC [methyl palmitate, methyl hexadecanoate] | 30.2 |
| CCCCC/C=C\C/C=C\CCCCCCCC(=O)OC [methyl linoleate, methyl (9Z,12Z)-octadeca-9,12-dienoate] | 30.1 |

[P] CCCCCCCC/C=C\CCCCCCCC(=O)OC [methyl oleate, methyl (Z)-octadec-9-enoate]
[Q] CCCCCCCCCCCCCC(=O)OC [methyl myristate, methyl tetradecanoate]
*Q* Higher % of the active ingredient in the pheromone between P and Q ? Refer to your chosen entry by its label in the reply.
*A* P
